- Tested on: 3T3-L1
- Protocol Text: Increase in triglyceride levels in mouse 3T3L1 cells at 10 uM
- Format: functional
Readout Kind: Activity (%)
State the answer as a number, implicitly in %.

// solved cases for Activity follow
- Compound: "O=c1oc(-c2ccc(O)c(O)c2)cc2cc(O)cc(O)c12"
  Activity, %: -7.8
- Compound: "O=C1OC(c2ccc(O)cc2)Cc2cccc(O)c21 (centres undefined) [HYDRANGENOL]"
  Activity, %: 17.7
- Compound: "O=C(O)c1c(O)cccc1/C=C/c1ccc(O)cc1 [HYDRANGEAIC ACID]"
  Activity, %: 11.1

Look up and report Activity, with 3T3-L1 as system, for `O=C1O/C(=C\c2ccc(O)c(O)c2)c2cccc(O)c21` 6.2
